B1: HDV Ribozyme (parent)
chain: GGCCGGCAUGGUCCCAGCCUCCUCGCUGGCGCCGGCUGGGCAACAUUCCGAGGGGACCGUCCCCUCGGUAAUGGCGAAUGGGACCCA

variants of: B1; assay: self-cleavage, relative activity (ratio to wild type); higher = more cleavage; co-transcriptional
Catalogue of variants with associated self-cleavage
Lab note: jot down the number only; don't add units.

Guide cases for self-cleavage, answers given:
1. GGCCGGCAUGGUCCCAGCCUCCUGGCUGGCGCCGGCUGGGCAACAUUCCGAGGGGACCGUCCCCUCCGUAAUGGCGAAUGGGACCCA :: 0.026
2. GGCCGGCAUGGUCCCAGCCUCCUCGCUGGCGCCGGCUGGGCAACAUCCCGAGGGGACCGUGCCCUCGGUAAUGGCGAAUGGGACCCA :: 0.65
3. GGCCGGCAUGGUUCCAGCCUCCUCGCUGGCGCCGGCUGGGUAACAUUCCGAGGGGACCGUCCCCUCGGUAAUGGCGAAUGGGACCCA :: 0.323
4. GGCCGGCAUGGUUCCAGCCUCCUCGCUGGCGCCGGCUGCGCAACAUUCCGAGGGGACCGUCCCCUCGGUAAUGGCGAAUGGGACCCA :: 0.0369
5. GGCCCGCAUGGUCCCAGCCUCCUCGCUGGCGCCGGCUGGGCAACAUUCCGAGGGGACCGUACCCUCGGUAAUGGCGAAUGGGACCCA :: 0.432
6. GGCCGGCAUGGUCCCAGCCUCCUCGCUGGCGCCGGCUGGGCUACAUUCCGAGGGGACCGUCCCCUCGGUAAUGGCGAAUGGCACCCA :: 0.264
7. GGGCGGCAUGGUCCCAGCCUCCUCGCUGGCGCCGGCUGGGCAACAUUCCGAGGGGACCGUCCCCUAGGUAAUGGCGAAUGGGACCCA :: 0.585
8. GGCCGGCAUGGUCCCAGCCUCCUCGCUGGCGCCGCCUGGGCAACAUUCCGAGGGGACCGUCCCCUCGGUCAUGGCGAAUGGGACCCA :: 0.158

Inquiry: Give the reported self-cleavage for this variant. GGCCGGCAUGGUCCCAGCCUCCUCGCUGGCGCCGACUGGGCAACAUCCCGAGGGGACCGUCCCCUCGGUAAUGGCGAAUGGGACCCA
Reply text: 0.489
